self-cleavage values for the variants below.
B1: HDV Ribozyme (parent)
chain: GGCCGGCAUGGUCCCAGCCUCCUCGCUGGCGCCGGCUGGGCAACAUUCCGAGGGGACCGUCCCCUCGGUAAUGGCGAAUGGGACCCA

# Variants of: B1
# Procedure Summary: self-cleavage, relative activity (ratio to wild type); higher = more cleavage; co-transcriptional
Assay Readout: self-cleavage

1) A16C G68A : 0.649
2) G31U G50A : 0.674
3) G67U A70U : 0.812
4) U46A C49U : 0.739
